Listed here: items and their measured Concentration of FLNA-Binding Compound as Agonist 1 μM.
# measuredTarget: mu opiate receptor (MOR) (Rattus norvegicus)
# Construct: from tissue; host or cells: striatum (membrane preparation)
# Format: biochemical
endpoint: Concentration of FLNA-Binding Compound as Agonist 1 μM (%)

{"columns": ["molecule", "measurement"],
 "data": [
  ["CC1CCC(C(C)C)C(OCC(O)CN2CCSCC2)C1 (stereo not shown) [Compound A0003]", 276.0],
  ["CC(=O)c1ccc(S(=O)(=O)N2CCC3(CC2)OCCN3S(=O)(=O)c2ccc(C(C)=O)cc2)cc1 [Compound C0011]", 305.0],
  ["C[C@@H](NC(=O)[C@@H](N)Cc1ccc(O)cc1)C(=O)NCC(=O)N(C)[C@@H](Cc1ccccc1)C(=O)NCCO [DAMGO, reference compound]", 266.1],
  ["OC(COc1ccc(Br)c(F)c1)CN1CCSCC1 (stereo not shown) [Compound A0059]", 129.9]
]}

----------
Measured Concentration of FLNA-Binding Compound as Agonist 0.1 μM of individual entries
# measuredTarget: mu opiate receptor (MOR) (Rattus norvegicus)
# Construct: from tissue; host or cells: striatum (membrane preparation)
# Type: biochemical
# measurementConditions: [35S]GTPγS binding to Gαo in striatal membranes; compound 0.1 μM
endpoint: Concentration of FLNA-Binding Compound as Agonist 0.1 μM (%)

{"columns": ["compound", "measuredTarget", "measurement"],
 "data": [
  ["COc1cc(S(=O)(=O)N2CCC3(CC2)OCCN3S(=O)(=O)c2cc(OC)c(OC)c(OC)c2)cc(OC)c1OC", "mu opiate receptor (MOR) (Rattus norvegicus)", 127.8],
  ["COc1ccc(C(=O)N2CCC3(CC2)OCCN3S(=O)(=O)c2ccc(OC)cc2)cc1", "mu opiate receptor (MOR) (Rattus norvegicus)", 195.5],
  ["COc1ccc(NC(=O)N2CCC3(CC2)OCCN3S(=O)(=O)c2ccc(OC)cc2)cc1", "mu opiate receptor (MOR) (Rattus norvegicus)", 186.1],
  ["COc1c2c(cc3c1C(CC(=O)CCc1ccc(Cl)cc1)[N+](C)(C)CC3)OCO2 (centres unmarked)", "mu opiate receptor (MOR) (Rattus norvegicus)", 99.6],
  ["COc1c2c(cc3c1C(CC(=O)CCc1ccccc1)N(C)CC3)OCO2 (centres unmarked)", "mu opiate receptor (MOR) (Rattus norvegicus)", 98.2],
  ["CC1CN(CC(O)COc2ccccc2C(C)C)CC(C)O1 (centres unmarked)", "mu opiate receptor (MOR) (Rattus norvegicus)", 173.8],
  ["COc1ccc(OCC(O)Cn2ccc3ccccc32)cc1 (centres unmarked)", "mu opiate receptor (MOR) (Rattus norvegicus)", 300.1],
  ["COc1ccc(C(=O)CC2c3c(cc4c(c3OC)OCO4)CC[N+]2(C)C)cc1C (centres unmarked)", "mu opiate receptor (MOR) (Rattus norvegicus)", 126.9]
]}

----------
Entries and their measured [35S]GTPγS binding, FLNA-Binding Compound as Agonist at 1 μM + BFNA follow.
# measuredTarget: mu opiate receptor (MOR) (Rattus norvegicus, UniProt P33535)
# Construct: from tissue; host or cells: striatum (membrane preparation)
# Sequence (P33535 whole entry): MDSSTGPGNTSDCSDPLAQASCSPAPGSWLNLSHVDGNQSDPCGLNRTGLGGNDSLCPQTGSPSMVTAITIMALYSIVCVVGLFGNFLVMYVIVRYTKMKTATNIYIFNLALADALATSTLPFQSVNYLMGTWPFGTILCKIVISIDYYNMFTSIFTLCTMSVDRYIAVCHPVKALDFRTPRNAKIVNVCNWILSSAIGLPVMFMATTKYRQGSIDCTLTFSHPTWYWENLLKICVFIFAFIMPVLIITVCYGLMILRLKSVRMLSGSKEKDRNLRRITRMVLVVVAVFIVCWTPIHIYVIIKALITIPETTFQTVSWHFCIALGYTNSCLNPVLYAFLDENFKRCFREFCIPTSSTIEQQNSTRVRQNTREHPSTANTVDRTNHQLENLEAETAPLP
# Assay type: biochemical
# measurementConditions: 1 μM compound + 1 μM β-FNA (selective MOR antagonist); Series C-2
endpoint: [35S]GTPγS binding, FLNA-Binding Compound as Agonist at 1 μM + BFNA (%)

{"columns": ["compound", "measurement"],
 "data": [
  ["O=C1CN(Cc2ccccc2)C2(CCN(C3CCCCC3)CC2)N1 [C0137M (P7)]", 55.8],
  ["CC(=O)c1ccc(S(=O)(=O)N2CCOC23CCNCC3)cc1", 156.8],
  ["CN1CCC2(CC1)OCCN2S(=O)(=O)c1ccc(S(C)(=O)=O)cc1 [Compound C0106M]", 117.2],
  ["CCN1CCC2(CC1)OCCN2S(=O)(=O)c1ccc(OC)cc1 [Compound C0089M]", 81.9],
  ["CN1CCC2(CC1)NC(=O)CN2Cc1ccccc1 [Compound C0104M]", 143.8],
  ["CCCCN1CCC2(CC1)OCCN2S(=O)(=O)c1ccc(C(C)=O)cc1 [Compound C0101M]", 174.8],
  ["O=[N+]([O-])c1ccc(S(=O)(=O)N2CCC3(CC2)NCCO3)cc1", 90.4],
  ["COc1ccc(S(=O)(=O)N2CCC3(NCCO3)C3CCCCC32)cc1 (stereo not drawn) [Compound C0144M-2]", 125.9],
  ["CC(=O)c1ccc(S(=O)(=O)N2CCOC23CCN(C)CC3)cc1 [Compound C0093M]", 44.0],
  ["O=[N+]([O-])c1ccc(S(=O)(=O)N2CCC3(CC2)NCCS3)cc1", 59.1],
  ["CC(=O)N1CCSC12CCN(S(=O)(=O)c1ccc([N+](=O)[O-])cc1)CC2", 59.0],
  ["O=[N+]([O-])c1ccc(S(=O)(=O)N2CCC3(CC2)NCCCO3)cc1", 105.3],
  ["CC(=O)c1ccc(S(=O)(=O)N2CCOC23CCN(CC2CC2)CC3)cc1 [Compound C0095M]", 107.7],
  ["CS(=O)(=O)c1ccc(S(=O)(=O)N2CCOC23CCN(CC2CC2)CC3)cc1 [Compound C0126M]", 108.5],
  ["CC(=O)c1ccc(S(=O)(=O)N2CCC3(CC2)OCCN3S(C)(=O)=O)cc1", 86.3],
  ["O=S(=O)(c1cccc2cccnc12)N1CCC2(CC1)OCCN2S(=O)(=O)c1cccc2cccnc12 [Compound C0143M]", 86.5],
  ["O=C1CN(Cc2ccccc2)C2(CCN(CC3CC3)CC2)N1 [Compound C0125M]", 159.7],
  ["O=S(=O)(c1ccccc1Oc1ccccc1)N1CCC2(CC1)NCCO2 [Compound C0149M-2]", 93.4]
]}

FYI, the data here is from patent US10760052B2.
